Measured activity score, listed per entry for reference.
Test: perturbers of mRNA poly(A) processing – luminescence, S. cerevisiae, primary screen (AID 1875);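 further: yeast exposed to compound for 9 h at 30 °C; higher score means more reporter readthrough which indicates perturbed polyadenylation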
Details: S. cerevisiae SKY197-pL101 polyadenylation reporter, beta-gal luminescence; at 12 µM; active compounds read high; efflux-impaired pdr1/pdr3 knockout yeast; score 100 = 6 SD above DMSO
Hit rate of the full screen: of about 300,000 compounds, about 65 (0.02%) were called active. Many of the other results were omitted from the sample, so actives are more common in it than they were.
Value expressed in %; do not type the unit.

Consider the reported activity score for these compounds:
INSERT INTO results (compound, reportedresult) VALUES
  ('COc1cccc(NC(=O)CC(c2ccc(OC(C)C)cc2)c2ccccc2OC)c1 (stereo not given)', 10.2),
  ('O=C1CSc2ccc(S(=O)(=O)NCc3ccccc3)cc2N1', 3.02),
  ('CC(C)(C)C(=O)NC1CC2CCCC(C1)N2C(=O)Nc1ccccc1F (stereo not given)', 0.739),
  ('Cc1ccc(Cl)cc1N1CCN(C(=O)c2cccc3c(=O)c(C)c(-c4ccccc4)oc23)CC1', 5.32),
  ('CC(=O)c1ccc(S(=O)(=O)N2CCN(c3nc4c(C)c(C)ccc4cc3C#N)CC2)cc1', 13.6),
  ('N/C(=N\S(=O)(=O)c1cc(C(F)(F)F)cc(C(F)(F)F)c1)c1cccs1', 23.1),
  ('COCCCNC(NC(=O)c1ccc(C)cc1)C(Cl)(Cl)Cl (stereo not given)', 8.69),
  ('CC1(C)CCSC(/C=C/c2ccccc2)=N1', 6.99);

Given the entry `O=C(NCCS(=O)(=O)N1CCN(c2ccccc2F)CC1)c1ccc(Br)o1` , report its measured activity score. 1.43

Given the entry `Cn1ncc(N2CCN(S(=O)(=O)c3ccc(Br)cc3)CC2)c(Cl)c1=O` , report its measured activity score. 13.7
